target: T1, TDP-216 peptide (human); test: indirect ELISA, 8-mer peptide library
T1 construct: 8-mer of human TDP-43; same ELISA method as for the biotinylated 15-mers
T1 peptide: DVMDVFIP

BINDER	binding result
ACI-7062-406E3-Ab2 (antibody, IgG2a, V domains shown, also called 406E3G10; clone 6) VH: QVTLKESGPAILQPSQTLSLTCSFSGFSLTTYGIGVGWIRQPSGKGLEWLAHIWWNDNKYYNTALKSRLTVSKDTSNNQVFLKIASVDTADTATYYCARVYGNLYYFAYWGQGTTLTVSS VL: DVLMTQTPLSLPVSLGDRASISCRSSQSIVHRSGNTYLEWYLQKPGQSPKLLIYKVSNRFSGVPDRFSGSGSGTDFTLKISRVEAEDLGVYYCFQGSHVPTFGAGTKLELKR	no binding
ACI-7062-416A11-Ab1 (antibody, IgG2a, V domains shown, also called 416A11B3; clone 18) VH: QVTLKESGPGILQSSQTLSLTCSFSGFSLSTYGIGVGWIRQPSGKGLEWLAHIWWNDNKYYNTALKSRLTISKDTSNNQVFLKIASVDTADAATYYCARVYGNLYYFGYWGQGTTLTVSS VL: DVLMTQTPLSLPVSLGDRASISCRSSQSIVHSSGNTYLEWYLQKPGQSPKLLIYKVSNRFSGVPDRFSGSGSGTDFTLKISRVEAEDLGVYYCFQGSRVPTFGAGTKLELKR	no binding
ACI-7062-412E12-Ab1 (antibody, IgG1, V domains shown, also called 412E12A2; clone 10) VH: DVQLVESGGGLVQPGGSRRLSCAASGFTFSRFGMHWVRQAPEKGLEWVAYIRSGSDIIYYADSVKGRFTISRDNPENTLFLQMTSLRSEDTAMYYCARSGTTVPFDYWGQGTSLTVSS VL: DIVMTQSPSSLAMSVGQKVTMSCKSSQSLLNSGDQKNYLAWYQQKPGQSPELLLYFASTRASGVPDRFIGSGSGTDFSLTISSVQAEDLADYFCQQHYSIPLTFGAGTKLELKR	no binding
